# TARGET_OF_ASSAY: Microtubule-associated protein tau (Homo sapiens)
# PROCEDURE_TEXT: Inhibition of tau aggregation (unknown origin) at 10 uM expressed in Escherichia coli BL21 (DE3) incubated for 24 hrs by thioflavin T-based fluorometric assay relative to control
PROPERTY_MEASURED: inhibition (%)

COMPOUND	PROPERTY_MEASURED	READOUT_UNIT	OBSERVED_VALUE
c1ccc(CCC2CCCN(CCNC3CCN(Cc4ccccc4)C3)C2)cc1 (stereo unspecified)	inhibition	%	57.2
c1ccc(CN2CCC(NCCN3CCN(C(c4ccccc4)c4ccccc4)CC3)C2)cc1 (stereo unspecified)	inhibition	%	64
O=C(CN1CCN(CCc2ccccc2)CC1)NC1CCN(Cc2ccccc2)C1 (stereo unspecified)	inhibition	%	61.3
O=C(CN1CCC(C(c2ccccc2)c2ccccc2)CC1)NC1CCN(Cc2ccccc2)C1 (stereo unspecified)	inhibition	%	64.3
c1ccc(CN2CCC(NCCN3CCN(c4ccccc4)CC3)C2)cc1 (stereo unspecified)	inhibition	%	79.5
c1ccc(CCC2CCN(CCNC3CCN(Cc4ccccc4)C3)CC2)cc1 (stereo unspecified)	inhibition	%	67.8
O=C(CN1CCCC(Cc2ccccc2)C1)NC1CCN(Cc2ccccc2)C1 (stereo unspecified)	inhibition	%	54.2
O=C(CN1CCCC(c2ccccc2)C1)NC1CCN(Cc2ccccc2)C1 (stereo unspecified)	inhibition	%	43.6
O=C(CN1CCN(C(c2ccccc2)c2ccccc2)CC1)NC1CCN(Cc2ccccc2)C1 (stereo unspecified)	inhibition	%	61.2
c1ccc(CCN2CCN(CCNC3CCN(Cc4ccccc4)C3)CC2)cc1 (stereo unspecified)	inhibition	%	59.6
O=C(CN1CCN(c2ccccc2)CC1)NC1CCN(Cc2ccccc2)C1 (stereo unspecified)	inhibition	%	74.8
c1ccc(CC2CCN(CCNC3CCN(Cc4ccccc4)C3)CC2)cc1 (stereo unspecified)	inhibition	%	61
O=C(CN1CCC(CCc2ccccc2)CC1)NC1CCN(Cc2ccccc2)C1 (stereo unspecified)	inhibition	%	53.5
c1ccc(CN2CCC(NCCN3CCC(c4ccccc4)CC3)C2)cc1 (stereo unspecified)	inhibition	%	68.1
c1ccc(CCC2CCN(CCCNC3CCN(Cc4ccccc4)C3)CC2)cc1 (stereo unspecified)	inhibition	%	52.8
O=C(CN1CCC(Cc2ccccc2)CC1)NC1CCN(Cc2ccccc2)C1 (stereo unspecified)	inhibition	%	66.8
O=C(CN1CCC(c2ccccc2)CC1)NC1CCN(Cc2ccccc2)C1 (stereo unspecified)	inhibition	%	53.6
c1ccc(CN2CCC(NCCN3CCC(C(c4ccccc4)c4ccccc4)CC3)C2)cc1 (stereo unspecified)	inhibition	%	60.4
c1ccc(CN2CCN(CCNC3CCN(Cc4ccccc4)C3)CC2)cc1 (stereo unspecified)	inhibition	%	60.6
O=C(CN1CCN(Cc2ccccc2)CC1)NC1CCN(Cc2ccccc2)C1 (stereo unspecified)	inhibition	%	66.7
O=C(CCN1CCC(CCc2ccccc2)CC1)NC1CCN(Cc2ccccc2)C1 (stereo unspecified)	inhibition	%	57.9

====

# TARGET_OF_ASSAY: Cholinesterase (Equus caballus) (UniProt P81908)
# Sequence (P81908 whole entry): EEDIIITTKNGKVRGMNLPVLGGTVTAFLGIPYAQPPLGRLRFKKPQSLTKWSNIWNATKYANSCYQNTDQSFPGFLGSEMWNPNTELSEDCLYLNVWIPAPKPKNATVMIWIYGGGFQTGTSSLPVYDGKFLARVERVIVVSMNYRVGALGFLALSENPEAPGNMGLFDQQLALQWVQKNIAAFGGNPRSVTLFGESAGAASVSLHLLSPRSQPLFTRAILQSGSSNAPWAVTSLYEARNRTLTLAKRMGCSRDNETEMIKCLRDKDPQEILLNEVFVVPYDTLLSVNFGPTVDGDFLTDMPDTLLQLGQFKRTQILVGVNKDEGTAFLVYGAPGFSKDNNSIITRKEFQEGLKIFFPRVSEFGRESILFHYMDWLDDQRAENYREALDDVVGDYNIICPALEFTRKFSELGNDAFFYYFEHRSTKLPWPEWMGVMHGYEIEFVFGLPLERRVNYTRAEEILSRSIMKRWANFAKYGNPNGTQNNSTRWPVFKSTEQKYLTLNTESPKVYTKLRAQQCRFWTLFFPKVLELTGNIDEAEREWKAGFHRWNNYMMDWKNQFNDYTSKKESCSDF
# PROCEDURE_TEXT: Inhibition of equine serum BuChE at 10 uM using butyrylthiocholine chloride as substrate pre-incubated for 5 mins followed by substrate addition and measured after 5 mins by Ellman's method relative to control
PROPERTY_MEASURED: inhibition

MOLECULE	PROPERTY_MEASURED	OBSERVED_VALUE
O=C(CN1CCCC(c2ccccc2)C1)NC1CCN(Cc2ccccc2)C1 (centres undefined)	inhibition	46%
O=C(CN1CCN(Cc2ccccc2)CC1)NC1CCN(Cc2ccccc2)C1 (centres undefined)	inhibition	17.8%
c1ccc(CN2CCC(NCCN3CCC(c4ccccc4)CC3)C2)cc1 (centres undefined)	inhibition	45.5%
c1ccc(CN2CCC(NCCN3CCC(C(c4ccccc4)c4ccccc4)CC3)C2)cc1 (centres undefined)	inhibition	44.2%

====

Each entry below carries its recorded Activity.
# PROCEDURE_TEXT: Antioxidant activity assessed as increase in total ferric ion reducing activity at 75 uM using FeCl3.H2O and TPTZ incubated for 5 mins by FRAP assay relative to control
# Format: functional
# Parameters: scale not given: the % may be the effect or the level left

COMPOUND	Activity (%)
c1ccc(CN2CCC(NCCN3CCN(C(c4ccccc4)c4ccccc4)CC3)C2)cc1 (stereo not given)	4
c1ccc(CN2CCC(NCCN3CCC(c4ccccc4)CC3)C2)cc1 (stereo not given)	0
c1ccc(CN2CCN(CCNC3CCN(Cc4ccccc4)C3)CC2)cc1 (stereo not given)	17
O=C(CN1CCN(c2ccccc2)CC1)NC1CCN(Cc2ccccc2)C1 (stereo not given)	14
Cc1c(C)c2c(c(C)c1O)CCC(C)(C(=O)O)O2 (stereo not given)	100

====

# TARGET_OF_ASSAY: Amyloid-beta precursor protein (Homo sapiens) (UniProt P05067)
# Sequence (P05067 whole entry): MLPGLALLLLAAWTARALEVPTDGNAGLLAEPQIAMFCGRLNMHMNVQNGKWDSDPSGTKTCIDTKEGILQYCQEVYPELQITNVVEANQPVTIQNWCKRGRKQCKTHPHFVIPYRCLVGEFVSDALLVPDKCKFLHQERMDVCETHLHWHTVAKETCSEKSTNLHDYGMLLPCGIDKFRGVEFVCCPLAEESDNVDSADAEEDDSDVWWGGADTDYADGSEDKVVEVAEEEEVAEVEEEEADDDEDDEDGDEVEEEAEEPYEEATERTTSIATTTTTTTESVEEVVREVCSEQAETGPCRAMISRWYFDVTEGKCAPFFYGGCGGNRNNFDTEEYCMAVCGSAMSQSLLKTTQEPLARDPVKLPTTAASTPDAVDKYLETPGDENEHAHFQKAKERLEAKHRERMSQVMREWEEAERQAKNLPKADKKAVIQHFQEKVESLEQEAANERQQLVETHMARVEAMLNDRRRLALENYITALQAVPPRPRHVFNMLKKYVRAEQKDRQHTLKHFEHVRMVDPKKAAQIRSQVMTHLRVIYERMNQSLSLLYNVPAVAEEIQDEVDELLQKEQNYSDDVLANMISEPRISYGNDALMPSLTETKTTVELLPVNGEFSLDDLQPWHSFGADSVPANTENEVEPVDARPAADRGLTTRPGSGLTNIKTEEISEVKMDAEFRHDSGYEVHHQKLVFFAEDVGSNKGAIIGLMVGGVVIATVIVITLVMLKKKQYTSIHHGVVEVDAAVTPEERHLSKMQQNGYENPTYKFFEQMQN
# ASSAY_CONDITIONS: at 10 µM
# Description: Inhibition of amyloid beta (1 to 42) (unknown origin) aggregation at 10 uM expressed in Escherichia coli BL21 (DE3) incubated for 24 hrs by thioflavin T-based fluorometric assay relative to control

COMPOUND	TARGET_OF_ASSAY	inhibition / %
O=C(CN1CCC(C(c2ccccc2)c2ccccc2)CC1)NC1CCN(Cc2ccccc2)C1 (stereo not drawn)	Amyloid-beta precursor protein (Homo sapiens) (UniProt P05067)	53.3
O=C(CN1CCN(C(c2ccccc2)c2ccccc2)CC1)NC1CCN(Cc2ccccc2)C1 (stereo not drawn)	Amyloid-beta precursor protein (Homo sapiens) (UniProt P05067)	27.9
c1ccc(CCN2CCN(CCNC3CCN(Cc4ccccc4)C3)CC2)cc1 (stereo not drawn)	Amyloid-beta precursor protein (Homo sapiens) (UniProt P05067)	34.7
O=C(CN1CCCC(Cc2ccccc2)C1)NC1CCN(Cc2ccccc2)C1 (stereo not drawn)	Amyloid-beta precursor protein (Homo sapiens) (UniProt P05067)	45.1
O=C(CN1CCCC(c2ccccc2)C1)NC1CCN(Cc2ccccc2)C1 (stereo not drawn)	Amyloid-beta precursor protein (Homo sapiens) (UniProt P05067)	38.8
c1ccc(CN2CCC(NCCN3CCN(c4ccccc4)CC3)C2)cc1 (stereo not drawn)	Amyloid-beta precursor protein (Homo sapiens) (UniProt P05067)	38.5
O=C(CN1CCC(Cc2ccccc2)CC1)NC1CCN(Cc2ccccc2)C1 (stereo not drawn)	Amyloid-beta precursor protein (Homo sapiens) (UniProt P05067)	35
c1ccc(CCC2CCCN(CCNC3CCN(Cc4ccccc4)C3)C2)cc1 (stereo not drawn)	Amyloid-beta precursor protein (Homo sapiens) (UniProt P05067)	41.3

The reported measurements were obtained from ChEMBL document CHEMBL4376850.
